# Test system: Staphylococcus aureus SA113
Parameter: MIC

Name the reported MIC value associated with the molecule CC(C)C[C@H](NC(=O)[C@H](CC(N)=O)NC(=O)[C@H](CCC(=O)O)NC(=O)[C@H](CC(N)=O)NC(=O)[C@H](CC(C)C)NC(=O)[C@@H](N)C(C)C)C(=O)N[C@@H](CCCN=C(N)N)C(=O)N[C@@H](CCCN=C(N)N)C(=O)O [VLNENLRR] ≥ 1250 µM

Name the reported MIC value associated with the molecule CC[C@H](C)[C@H](N)C(=O)N[C@@H](CCCN=C(N)N)C(=O)N[C@@H](CCCN=C(N)N)C(=O)N[C@@H](CCC(N)=O)C(=O)NCC(=O)N[C@@H](CC(C)C)C(=O)N1CCC[C@H]1C(=O)N[C@@H](CCC(=O)O)C(=O)O [IRRQGLPE] ≥ 625 µM

Name the reported MIC value associated with the molecule CC(C)C[C@H](NC(=O)[C@H](C)NC(=O)[C@H](CC(N)=O)NC(=O)[C@H](CCC(=O)O)NC(=O)[C@H](CC(N)=O)NC(=O)[C@H](CC(C)C)NC(=O)[C@@H](N)C(C)C)C(=O)N[C@@H](CCCN=C(N)N)C(=O)O [VLNENALR] ≥ 625 µM

Name the reported MIC value associated with the molecule CC(C)C[C@H](NC(=O)CNC(=O)[C@H](CCC(N)=O)NC(=O)[C@H](Cc1cnc[nH]1)NC(=O)[C@@H](N)CCCCN)C(=O)N1CCC[C@H]1C(=O)N[C@@H](CCC(N)=O)C(=O)N[C@@H](CCC(=O)O)C(=O)O [KHQGLPQE] ≥ 625 µM

Name the reported MIC value associated with the molecule CC(C)C[C@H](NC(=O)[C@H](CC(C)C)NC(=O)[C@H](CC(N)=O)NC(=O)[C@H](CCC(=O)O)NC(=O)[C@H](CC(N)=O)NC(=O)[C@H](CC(C)C)NC(=O)[C@@H](N)C(C)C)C(=O)O [VLNENLL] ≥ 1250 µM

Name the reported MIC value associated with the molecule CC[C@H](C)[C@H](N)C(=O)N[C@@H](Cc1cnc[nH]1)C(=O)N[C@@H](Cc1cnc[nH]1)C(=O)N[C@@H](CCC(N)=O)C(=O)NCC(=O)N[C@@H](CC(C)C)C(=O)N1CCC[C@H]1C(=O)N[C@@H](CCC(N)=O)C(=O)N[C@@H](CCC(=O)O)C(=O)O [IHHQGLPQE] ≥ 2500 µM

====

Parameter: MIC

Can you look up MIC on Staphylococcus aureus NCTC 8325-4 for `CC(C)C[C@H](NC(=O)[C@H](CC(C)C)NC(=O)[C@H](CC(N)=O)NC(=O)[C@H](CCC(=O)O)NC(=O)[C@H](CC(N)=O)NC(=O)[C@H](CC(C)C)NC(=O)[C@@H](N)C(C)C)C(=O)O` ? ≥ 1250 µM

Can you look up MIC on Staphylococcus aureus NCTC 8325-4 for `CC(C)C[C@H](NC(=O)CNC(=O)[C@H](CCC(N)=O)NC(=O)[C@H](Cc1cnc[nH]1)NC(=O)[C@@H](N)CCCCN)C(=O)N1CCC[C@H]1C(=O)N[C@@H](CCC(N)=O)C(=O)N[C@@H](CCC(=O)O)C(=O)O` ? ≥ 1250 µM

Can you look up MIC on Staphylococcus aureus NCTC 8325-4 for `CC[C@H](C)[C@H](N)C(=O)N[C@@H](CCCN=C(N)N)C(=O)N[C@@H](CCCN=C(N)N)C(=O)N[C@@H](CCC(N)=O)C(=O)NCC(=O)N[C@@H](CC(C)C)C(=O)N1CCC[C@H]1C(=O)N[C@@H](CCC(=O)O)C(=O)O` ? ≥ 312 µM

Can you look up MIC on Staphylococcus aureus NCTC 8325-4 for `CC[C@H](C)[C@H](N)C(=O)N[C@@H](Cc1cnc[nH]1)C(=O)N[C@@H](Cc1cnc[nH]1)C(=O)N[C@@H](CCC(N)=O)C(=O)NCC(=O)N[C@@H](CC(C)C)C(=O)N1CCC[C@H]1C(=O)N[C@@H](CCC(N)=O)C(=O)N[C@@H](CCC(=O)O)C(=O)O` ? ≥ 2500 µM

Can you look up MIC on Staphylococcus aureus NCTC 8325-4 for `CC[C@H](C)[C@H](N)C(=O)N[C@@H](CCCCN)C(=O)N[C@@H](CCCCN)C(=O)N[C@H](C(=O)N[C@H](C(=O)N[C@@H](CCCCN)C(=O)N[C@@H](CCCCN)C(=O)N[C@H](C(=O)N[C@H](C(=O)N[C@@H](CCCCN)C(=O)N[C@@H](CCCCN)C(=O)N[C@H](C(N)=O)[C@@H](C)CC)[C@@H](C)CC)[C@@H](C)CC)[C@@H](C)CC)[C@@H](C)CC` ? ≥ 250 µM

Can you look up MIC on Staphylococcus aureus NCTC 8325-4 for `CC(C)C[C@H](NC(=O)[C@H](CC(N)=O)NC(=O)[C@H](CCC(=O)O)NC(=O)[C@H](CC(N)=O)NC(=O)[C@H](CC(C)C)NC(=O)[C@@H](N)C(C)C)C(=O)N[C@@H](CCCN=C(N)N)C(=O)N[C@@H](CCCN=C(N)N)C(=O)O` ? ≥ 625 µM

Can you look up MIC on Staphylococcus aureus NCTC 8325-4 for `CC(C)C[C@H](NC(=O)[C@H](C)NC(=O)[C@H](CC(N)=O)NC(=O)[C@H](CCC(=O)O)NC(=O)[C@H](CC(N)=O)NC(=O)[C@H](CC(C)C)NC(=O)[C@@H](N)C(C)C)C(=O)N[C@@H](CCCN=C(N)N)C(=O)O` ? ≥ 1250 µM

Hello, the source for this data is DBAASP, in case you need it.
